Source of measurements: patent US12187746B2

tested on: P-Akt (S473); experiment: Cell based AlphaLISA assay, inhibition of P-Akt (S473) in MDA-MB-468 cells; settings: Homo sapiens, 4 h, 0.017-1,000 nM, two to four hours at 37° C., AlphaLisa SureFire Ultra, read-out: pIC50 for Inhibition of mTORC1 and mTORC2 Substrate Phosphorylation, p-AKT1/2/3-(S473) (converted)
measure: IC50

Q. Requested read-out: IC50. Entry: CO[C@H]1C[C@@H]2CC[C@@H](C)[C@@](O)(O2)C(=O)C(=O)N2CCCC[C@H]2C(=O)O[C@H]([C@H](C)C[C@@H]2CC[C@@H](O)[C@H](OC)C2)C[C@@H](O)[C@H](C)/C=C(\C)[C@@H](O)[C@@H](OC)C(=NOCC(=O)N2CCc3nc(N4CCN(c5ncc(C(=O)NCCOCCC(=O)N6CCc7cc(Cn8nc(-c9ccc%10oc(N)nc%10c9)c9c(N)ncnc98)ccc7C6)cn5)CC4)ncc3C2)[C@H](C)CC(C)/C=C/C=C/C=C/1C (stereo partly shown) [Example 18]
A. > 1000 nM

Q. Requested read-out: IC50. Entry: CO[C@H]1C[C@@H]2CC[C@@H](C)[C@@](O)(O2)C(=O)C(=O)N2CCCC[C@H]2C(=O)O[C@H]([C@H](C)C[C@@H]2CC[C@@H](O)[C@H](OC)C2)CC[C@H](C)/C=C(\C)[C@@H](O)[C@@H](OC)C(=NOCC(=O)NCCOCCOCCOCCOCCOCCOCCOCCOCCC(=O)N2CCc3cc(Cn4nc(-c5ccc6oc(N)nc6c5)c5c(N)ncnc54)ccc3C2)[C@H](C)C[C@H](C)/C=C/C=C/C=C/1C [Example 67]
A. 31.6 to 1000 nM

Q. Requested read-out: IC50. Entry: CO[C@H]1C[C@@H]2CC[C@@H](C)[C@@](O)(O2)C(=O)C(=O)N2CCCC[C@H]2C(=O)O[C@H]([C@H](C)C[C@@H]2CC[C@@H](O)[C@H](OC)C2)C[C@@H](O)[C@H](C)/C=C(\C)[C@@H](O)[C@@H](OC)C(=NOCC(=O)N2CCc3nc(N4CCN(c5ncc(C(=O)NCCOCCOCCC(=O)NCCCCn6nc(-c7ccc8oc(N)nc8c7)c7c(N)ncnc76)cn5)CC4)ncc3C2)[C@H](C)C[C@H](C)/C=C/C=C/C=C/1C [Example 16]
A. > 1000 nM

Q. Requested read-out: IC50. Entry: CO[C@H]1C[C@@H]2CC[C@@H](C)[C@@](O)(O2)C(=O)C(=O)N2CCCC[C@H]2C(=O)O[C@H]([C@H](C)C[C@@H]2CC[C@@H](O)[C@H](OC)C2)C[C@@H](O)[C@H](C)/C=C(\C)[C@@H](O)[C@@H](OC)C(=NOCC(=O)NCc2cnc(N3CCN(C(=O)CCCN4CCN(c5ncc(C(=O)NCCCCn6nc(-c7ccc8oc(N)nc8c7)c7c(N)ncnc76)cn5)CC4)CC3)nc2)[C@H](C)C[C@H](C)/C=C/C=C/C=C/1C [Example 37]
A. 3.16 to 31.6 nM

Q. Requested read-out: IC50. Entry: CO[C@H]1C[C@@H]2CC[C@@H](C)[C@@](O)(O2)C(=O)C(=O)N2CCCC[C@H]2C(=O)O[C@H]([C@H](C)C[C@@H]2CC[C@@H](O)[C@H](OC)C2)C[C@@H](O)[C@H](C)/C=C(\C)[C@@H](O)[C@@H](OC)C(=NOCC(=O)NCCOCCOCCOCCOCCOCCOCCC(=O)N2CCC(N3CCC(C(=O)N4CCc5cc(Cn6nc(-c7ccc8oc(N)nc8c7)c7c(N)ncnc76)ccc5C4)CC3)CC2)[C@H](C)C[C@H](C)/C=C/C=C/C=C/1C [Example 28]
A. 31.6 to 1000 nM

Q. Requested read-out: IC50. Entry: CC(C)n1nc(-c2ccc3oc(N)nc3c2)c2c(N)ncnc21 [MLN-128, MLN0128, reference compound]
A. 3.16 to 31.6 nM

Q. Requested read-out: IC50. Entry: CO[C@H]1C[C@@H]2CC[C@@H](C)[C@@](O)(O2)C(=O)C(=O)N2CCCC[C@H]2C(=O)O[C@H]([C@H](C)C[C@@H]2CC[C@@H](O)[C@H](OC)C2)C[C@@H](O)[C@H](C)/C=C(\C)[C@@H](O)[C@@H](OC)/C(=N/OCC(=O)NCCOCCOCCOCCOCCOCCOCCC(=O)NCCCCn2nc(-c3ccc4oc(N)nc4c3)c3c(N)ncnc32)[C@H](C)C[C@H](C)/C=C/C=C/C=C/1C [Example 3]
A. 31.6 to 1000 nM

Q. Requested read-out: IC50. Entry: CO[C@H]1C[C@@H]2CC[C@@H](C)[C@@](O)(O2)C(=O)C(=O)N2CCCC[C@H]2C(=O)O[C@H]([C@H](C)C[C@@H]2CC[C@@H](O)[C@H](OC)C2)C[C@@H](O)[C@H](C)/C=C(\C)[C@@H](O)[C@@H](OC)C(=NOC(C)(C)C(=O)NCCOCCOCCOCCOCCOCCOCCC(=O)N2CCc3cc(Cn4nc(-c5ccc6oc(N)nc6c5)c5c(N)ncnc54)ccc3C2)[C@H](C)C[C@H](C)/C=C/C=C/C=C/1C [Example 48]
A. > 1000 nM

Q. Requested read-out: IC50. Entry: CO[C@H]1C[C@@H]2CC[C@@H](C)[C@@](O)(O2)C(=O)C(=O)N2CCCC[C@H]2C(=O)O[C@H]([C@H](C)C[C@@H]2CC[C@@H](O)[C@H](OC)C2)C[C@@H](O)[C@H](C)/C=C(\C)[C@@H](O)[C@@H](OC)C(=NOCC(=O)NCCOCCOCCOCCOCCOCCOCCOCCOCCC(=O)N2CCc3cc(Cn4nc(-c5ccc6oc(N)nc6c5)c5c(N)ncnc54)ccc3C2)[C@H](C)C[C@H](C)/C=C/C=C/C=C/1C [Example 4]
A. 31.6 to 1000 nM

Q. Requested read-out: IC50. Entry: CO[C@H]1C[C@@H]2CC[C@@H](C)[C@@](O)(O2)C(=O)C(=O)N2CCCC[C@H]2C(=O)O[C@H]([C@H](C)C[C@@H]2CC[C@@H](O)[C@H](OC)C2)C[C@@H](O)[C@H](C)/C=C(\C)[C@@H](O)[C@@H](OC)C(=NOCC(=O)NCc2cnc(N3CCN(c4ncc(C(=O)NCCOCCC(=O)N5CCc6cc(Cn7nc(-c8ccc9oc(N)nc9c8)c8c(N)ncnc87)ccc6C5)cn4)[C@H](CN(C)C)C3)nc2)[C@H](C)C[C@H](C)/C=C/C=C/C=C/1C [Example 49]
A. > 1000 nM
